biological target: SARS2 protease (Severe acute respiratory syndrome coronavirus 2); assay: SARS-CoV-2 protease inhibition assay (SARS2 FRET protease assay); format: biochemical; details: SARS-CoV-2 protease 25 nM, FRET, peptide substrate 1.3 μM, 30 minutes at 30° C., compounds 20 μM to 1.0 nM; read-out: IC50
quantity name: pIC50
When answering, recall that pIC50 equals minus log10 of the concentration in mol/L, and write that number alone.

# lookup: pIC50 of CC(C)(COC(=O)N[C@H](C(=O)N[C@H](C=O)C[C@@H]1CCNC1=O)C(C)(C)C)c1cccc(Cl)c1 6.13

Okay, and CC(C)C[C@H](NC(=O)OC(c1cccc(Cl)c1)C1(c2cccc(Cl)c2)CC1)C(=O)N[C@@H](C[C@@H]1CCNC1=O)C(=O)C(=O)NC1CC1 (stereo partly drawn) ? 6.96

Okay, and O=C[C@H](C[C@@H]1CCNC1=O)NC(=O)[C@H](CC1CCCCC1)NC(=O)O[C@H]1CCC[C@H]1Cc1cccc(Cl)c1 ? 6.74

Okay, and CC(=O)N1CCC2(CC1)C[C@@H](C[C@H](NC(=O)[C@H](CC1CCCCC1)NC(=O)c1cc3ccccc3[nH]1)C(=O)C(N)=O)C(=O)N2 ? 6.75

Okay, and O=C[C@H](C[C@@H]1CCNC1=O)NC(=O)[C@H](CC1CCCCC1)NC(=O)OC(Cc1cccc(Cl)c1)c1cccc(Cl)c1 (stereo partly drawn) ? 6.49

Okay, and CC1(C)CC(CC(NC(=O)[C@H](CC2CCCCC2)NC(=O)OC(c2cccc(Cl)c2)C(C)(C)c2cccc(Cl)c2)C(=O)C(N)=O)C(=O)N1 (stereo partly drawn) ? 5.65

Okay, and CCOP(=O)(OCC)C(O)[C@H](CCC(=O)N(C)C)NC(=O)C(CC(C)(C)C)NC(=O)OCc1cccc(Cl)c1 (stereo partly drawn) ? 4.15
